# Lookup of reported melting point keyed by entry
MEASUREMENT_KIND: melting point

{"COMPOUND": "CC1(C2CCCC2)Cc2cc(OC3=C(O)C(=O)NC3=O)c(Cl)c(Cl)c2C1=O (configuration not stated)", "ASSAY_VALUE": "181 to 183 °C"}
{"COMPOUND": "O=S(=O)(Cl)c1ccc2scnc2c1", "ASSAY_VALUE": "110 to 112 °C"}
{"COMPOUND": "CC(=O)N(c1cc([N+](=O)[O-])c(F)cc1Cl)S(=O)(=O)CCl", "ASSAY_VALUE": "183 to 187 °C"}
{"COMPOUND": "CCCCCCCc1cc(O)cc(O)c1C(=O)OCc1ccccc1", "ASSAY_VALUE": "104 °C"}
{"COMPOUND": "Cc1ccc(OCc2ccccc2)c(C(=O)O)c1C(=O)O", "ASSAY_VALUE": "200 to 203 °C"}
{"COMPOUND": "COC(=O)c1cccc(C2CCCS2)c1N (configuration not stated)", "ASSAY_VALUE": "75 to 79 °C"}
{"COMPOUND": "N=C(NCc1cnccn1)NN=Cc1c(Cl)cccc1Cl", "ASSAY_VALUE": "168 to 169 °C"}
{"COMPOUND": "CC(C)(O)C(=O)CC(=O)c1ccc(C(=O)CC(=O)C(C)(C)O)cc1", "ASSAY_VALUE": "276 to 278 °C"}
{"COMPOUND": "CN(C)CCC1=Cc2ccc(NC(=O)c3ccc(-c4ccccc4)cc3)cc2CC1", "ASSAY_VALUE": "148 to 150 °C"}
{"COMPOUND": "COc1ccc2[nH]cc(S(=O)(=O)c3ccccc3)c2n1", "ASSAY_VALUE": "223 to 225 °C"}
{"COMPOUND": "Nc1nc(N)nc(-c2ccc(S(=O)(=O)c3ccccc3)cc2)n1", "ASSAY_VALUE": "> 250 °C"}
{"COMPOUND": "Cc1c(-c2cccnc2)ccc2c(=O)c(C(=O)O)cn(C3CC3)c12", "ASSAY_VALUE": "247 °C"}
{"COMPOUND": "O=C1CCC2=C1C(c1cccc(Br)c1)C1=C(CCS1)N2 (configuration not stated)", "ASSAY_VALUE": "246 °C"}
{"COMPOUND": "C/C(=N\\OCCBr)[C@H]1CC[C@H]2[C@@H]3CCC4=CC(=O)CC[C@]4(C)[C@H]3CC[C@]12C", "ASSAY_VALUE": "96 to 98 °C"}
{"COMPOUND": "CC(C)Oc1ccc(N)c(CC#N)n1", "ASSAY_VALUE": "83 to 85 °C"}
{"COMPOUND": "CCOC(=O)c1cc(NC(C)=O)ccc1O", "ASSAY_VALUE": "135 to 136 °C"}
{"COMPOUND": "O=C1CCC(N2Cc3c(OCc4ccc(Cn5cnnc5)cc4)cccc3C2=O)C(=O)N1 (configuration not stated)", "ASSAY_VALUE": "173 to 175 °C"}
{"COMPOUND": "N#Cc1ccc2sc(CBr)nc2c1", "ASSAY_VALUE": "185 to 186 °C"}
{"COMPOUND": "O=C(O)c1cc(S(=O)(=O)N2CCC(Br)C(Br)C2)ccc1Cl (configuration not stated)", "ASSAY_VALUE": "176 to 178 °C"}
{"COMPOUND": "CC(C)(C)C(=O)Nc1ncccc1CNC1CCN(Cc2ccccc2)CC1", "ASSAY_VALUE": "138 °C"}
{"COMPOUND": "O=C(Nc1cccc(C(F)(F)F)c1)c1ccccc1NCc1ccc(=O)[nH]c1", "ASSAY_VALUE": "171 to 172 °C"}
{"COMPOUND": "CC(=O)N1C(=O)OC[C@@H]1Cc1ccccc1", "ASSAY_VALUE": "106 °C"}

src = a melting point compilation (Tetko et al.; mined from patent text by program, amines drawn as free bases though some values may be those of a salt)
